Entries annotated with measured normalized growth
assay: chemical genetic growth profiling, strain panel (AID 1159580);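 also: tested at 20 µM; growth read once vehicle control cultures reached saturation at 30 °C; 1 = growth at the plate median or of vehicle wells; lower values mean less growth of the strain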; settings: S. cerevisiae deletion strains, growth OD, locus YOR080W, strain dia2, stronger effect = lower value
The campaign covered roughly 5,500 compounds. About 2,000 (36%) were called active. Inconclusive results (about 18%) are left out. This is one part of the list.
Lab note: jot the number down without any unit.

Solved cases below.
Compound	normalized growth
CN[C@@H](C)[C@@H](O)c1ccccc1	0.994
CC(=O)OC(C)(C)[C@@H]1Cc2cc3ccc(=O)oc3cc2O1	0.982
CC(C[N+](C)(C)C)OC(N)=O (centres undefined)	1.04
CC(=O)OCC[N+](C)(C)C	1.02

Short answer for `COc1cc2c(cc1OC)[C@@H]1C(=O)c3ccc4oc(C(C)C)cc4c3O[C@@H]1CO2` : normalized growth was 0.965

Short answer for `COc1ccc2c(c1)O[C@@H]1COc3cc(OC)c(OC)cc3[C@@H]1C2=O` : normalized growth was 0.839

Short answer for CC(CCc1ccccc1)NC(C)C(O)c1ccc(O)cc1 (centres undefined) : normalized growth was 0.994

Short answer for CCCCCCCCNC(C)C(O)c1ccc(SC(C)C)cc1 (centres undefined) : normalized growth was 0.0613

Short answer for CC(=O)OCC(=O)[C@H]1CCC2C3CCC4=CC(=O)CC[C@]4(C)C3CC[C@@]21C (some centres undefined) : normalized growth was 0.987

* * *

experiment: chemical genetic growth profiling, strain panel (AID 1159580); details: S. cerevisiae deletion strains, growth OD, locus YHR013C, strain ard1, stronger effect = lower value
Among all 5,500 compounds or so, about 2,000 (36%) were called active. Not shown: some 18% with an inconclusive outcome. The list shows a part of the results.
Measured metric: normalized growth
Lab note: jot the number down without any unit.

Molecule	normalized growth
CC(NCCc1ccc(O)cc1)C(O)c1ccc(O)cc1 (configuration not stated)	0.953
ClC1=C(Cl)C2(Cl)C3C4C=CC(C4)C3C1(Cl)C2(Cl)Cl (configuration not stated)	1.08

Short answer for OCCN1C[C@@H](O)[C@@H](O)C(O)C1CO (some centres not stated) : normalized growth was 0.988

Short answer for `COc1cc2c(cc1OC)[C@@H]1C(=O)c3ccc4c(c3O[C@@H]1CO2)C=CC(C)(C)O4` : normalized growth was 0.993

Short answer for `CN(C)CC/C=C1\c2ccccc2Sc2ccc(Cl)cc21` : normalized growth was 0.637

Short answer for `CN1CCC(=C2c3ccccc3CC(=O)c3sccc32)CC1` : normalized growth was 0.971

Short answer for CC(CCc1ccccc1)NC(C)C(O)c1ccc(O)cc1 (configuration not stated) : normalized growth was 0.991

Short answer for `COc1cc2c(cc1OC)[C@@H]1C(=O)c3ccc(OC)c(CC=C(C)C)c3O[C@@H]1CO2` : normalized growth was 1.14

Short answer for `COc1cc2c(cc1OC)[C@@H]1C(=O)c3ccc(O)c(CC=C(C)C)c3O[C@@H]1CO2` : normalized growth was 1.02

Short answer for `CN[C@@H](C)[C@@H](O)c1ccccc1` : normalized growth was 0.961

Short answer for `COc1cc2c(cc1OC)[C@@H]1C(=O)c3ccc4oc(C(C)C)cc4c3O[C@@H]1CO2` : normalized growth was 0.973

Short answer for CNC(C)[C@H](O)c1ccccc1 (some centres not stated) : normalized growth was 1.04

* * *

experiment: chemical genetic growth profiling, strain panel (AID 1159580);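 also: tested at 20 µM; growth read once vehicle control cultures reached saturation at 30 °C; 1 = growth at the plate median or of vehicle wells; lower values mean less growth of the strain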; conditions: S. cerevisiae deletion strains, growth OD, locus YLR342W, strain FKS1, stronger effect = lower value
Out of some 5,500 compounds screened, about 2,000 (36%) were called active. Another 18% or so got no clear call; they are omitted. Some of the results follow.
Measured metric: normalized growth

Solved cases below.
Compound	Observed
O=C(O)C1(O)C[C@@H](O)C(O)[C@H](O)C1 (some centres not stated)	0.976 (inactive)
CC1=C(C/C=C(\C)CCC[C@H](C)CCC[C@H](C)CCCC(C)C)C(=O)c2ccccc2C1=O	0.999 (inactive)
CC1=C(C(C)O)C2=NC1C=c1[nH]c(c(C)c1C(C)O)=Cc1[nH]c(c(CCC(=O)O)c1C)C=c1[nH]c(c(C)c1CCC(=O)O)=C2 (configuration not stated)	0.987 (inactive)
ClC1=C(Cl)C2(Cl)C3C4C=CC(C4)C3C1(Cl)C2(Cl)Cl (configuration not stated)	0.995 (inactive)
COc1cc2c(cc1OC)[C@@H]1C(=O)c3ccc(OC)c(CC=C(C)C)c3O[C@@H]1CO2	1.02 (inactive)
CC1=C(/C=C/C(C)=C/C=C/C(C)=C/C=C/C=C(C)/C=C/C=C(C)/C=C/C2=C(C)C(=O)C(O)CC2(C)C)C(C)(C)CC(O)C1=O (configuration not stated)	1.04 (inactive)
CNC(C)[C@H](O)c1ccccc1 (some centres not stated)	1.02 (inactive)
COc1cc2c(cc1OC)[C@@H]1C(=O)c3ccc(O)c(CC=C(C)C)c3O[C@@H]1CO2	1.02 (inactive)
ClC1=C(Cl)C2(Cl)C3C(Cl)C=CC3C1(Cl)C2(Cl)Cl (configuration not stated)	1.01 (inactive)
CCOC(=O)c1c(C)cc(O)c(C=O)c1O	0.586 (active)

Short answer for C[C@H]1CC2C([C@@H](O)C[C@@]3(C)C2CC[C@]3(O)C(=O)CO)[C@@]2(C)C=CC(=O)C=C12 (some centres not stated) : normalized growth was 0.985 (inactive)

Short answer for CC1CC2C3CC(F)C4=CC(=O)C=CC4(C)C3(F)C(O)CC2(C)C1(O)C(=O)CO (configuration not stated) : normalized growth was 0.991 (inactive)

* * *

Entries annotated with measured normalized growth
assay: chemical genetic growth profiling, strain panel (AID 1159580);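 also: tested at 20 µM; growth read once vehicle control cultures reached saturation at 30 °C; 1 = growth at the plate median or of vehicle wells; lower values mean less growth of the strain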; conditions: S. cerevisiae deletion strains, growth OD, locus YDL074C, strain BRE1, stronger effect = lower value
Hit rate of the full screen: of about 5,500 compounds, about 2,000 (36%) were called active. Roughly 18% stayed inconclusive and do not appear here. Some of the results follow.
Lab note: jot the number down without any unit.

Solved cases below.
Compound	Observed
CC(C)OC(=O)C(C)(C)Oc1ccc(C(=O)c2ccc(Cl)cc2)cc1	0.931
COc1cc2c(cc1OC)Cc1cc(OC)c(OC)cc1Cc1cc(OC)c(OC)cc1C2	1.03
O=C1C=CC(=C(c2ccc(O)cc2)c2ccc(O)cc2)C=C1	1.06
COc1ccc2c(C)cc(=O)oc2c1	0.995
COc1ccc2cc([C@H](C)C(=O)O)ccc2c1	0.989

Short answer for `CN(C)c1ccc(C(=C2C=CC(=[N+](C)C)C=C2)c2ccc(N(C)C)cc2)cc1` : normalized growth was 0.492

Short answer for C=C1C([C@]2(C)C(CC(=O)OC)[C@@](C)(COC(C)=O)OC(=O)C[C@@H]2OC(C)=O)[C@@H](OC=O)[C@H](OC(=O)C(OC(C)=O)C(C)CC)[C@@]2(C)[C@H](c3ccoc3)CC(=O)C12O (stereo partly specified) : normalized growth was 1.04

Short answer for C[C@H]1OC(n2cc(F)c(=O)[nH]c2=O)C(O)[C@@H]1O (stereo partly specified) : normalized growth was 1.02

Short answer for `CCOC(=O)C(C)(C)Oc1ccc(Cl)cc1` : normalized growth was 1.02

Short answer for CCN(CC)CCCC(C)Nc1c2ccc(Cl)cc2nc2ccc(OC)cc12 (stereo unspecified) : normalized growth was 0.511

Short answer for CN1CCCN=C1COC(=O)C(O)(c1ccccc1)C1CCCCC1 (stereo unspecified) : normalized growth was 1.01

Short answer for C[C@]12CC(=O)C3C(CC[C@@H]4C[C@H](O)CC[C@]34C)C1CC[C@]2(O)C(=O)CO (stereo partly specified) : normalized growth was 0.978

Short answer for CC(C(=O)O)c1cccc(Oc2ccccc2)c1 (stereo unspecified) : normalized growth was 0.997

* * *

assay: chemical genetic growth profiling, strain panel (AID 1159580);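 also: tested at 20 µM; growth read once vehicle control cultures reached saturation at 30 °C; 1 = growth at the plate median or of vehicle wells; lower values mean less growth of the strain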; conditions: S. cerevisiae deletion strains, growth OD, locus YDL035C, strain GPR1, stronger effect = lower value
About 2,000 (36%) of roughly 5,500 compounds were called active. Another 18% or so got no clear call; they are omitted. The list shows a part of the results.
Measured metric: normalized growth
Lab note: jot the number down without any unit.

Solved cases below.
Compound	normalized growth
COc1cc(NS(=O)(=O)c2ccc(N)cc2)nc(OC)n1	0.976
CCC(C)C(=O)O[C@H]1[C@H](O)C2C(CN3CC(C)CCC3[C@@]2(C)O)C2C[C@]34O[C@]5(O)C(OC(=O)C(C)(O)C(C)O)CC[C@@]3(C)C5C(OC(C)=O)[C@@H](OC(C)=O)C4[C@@]21O (stereo partly drawn)	1.02
COc1ccc2cc([C@H](C)CO)ccc2c1	0.955

Short answer for `CN[C@@H](C)[C@@H](O)c1ccccc1` : normalized growth was 0.949

Short answer for `Cc1cc(O)c(C)c(O)c1C(=O)O` : normalized growth was 1.03

Short answer for CC(C[N+](C)(C)C)OC(N)=O (stereo not drawn) : normalized growth was 1.04

Short answer for CC(=O)[C@H]1CCC2C3CCC4=CC(=O)CC[C@]4(C)C3CC[C@@]21C (stereo partly drawn) : normalized growth was 0.936

Short answer for COc1cc(NC(C)CCCN)c2ncccc2c1 (stereo not drawn) : normalized growth was 1

Short answer for CC1=C(CC(=O)O)c2cc(F)ccc2/C1=C\c1ccc(S(C)=O)cc1 (stereo not drawn) : normalized growth was 1.01

Short answer for `C[N+](C)(C)CCCCCC[N+](C)(C)C` : normalized growth was 1

Short answer for `NC(=O)c1ccc[n+]([C@@H]2O[C@H](COP(=O)([O-])OP(=O)(O)OC[C@H]3O[C@@H](n4cnc5c(N)ncnc54)[C@H](O)[C@@H]3O)[C@@H](O)[C@H]2O)c1` : normalized growth was 0.986

Short answer for `COc1ccc2c3c1O[C@H]1C[C@@H](O)C=C[C@@]31CCN(C)C2` : normalized growth was 1.01

Short answer for CC1(C)C(C=C(Cl)Cl)C1C(=O)OC(C#N)c1cccc(Oc2ccccc2)c1 (stereo not drawn) : normalized growth was 0.998
